Please go through the items and note down their inhibition of aggregation.
- ASSAY_EXPLANATION: reduction of polyQ htt aggregates in cells – imaging, exon1htt(103Q)mCFP cells, high-content imaging, primary screen (AID 483);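 further: compound exposure lasted 3 days before fixation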
- STUDY_CONDITIONS: exon1htt(103Q)mCFP cell line, aggregate imaging, at 2 µM; stronger effect = higher value
Report only the number, with the unit % understood.

Which inhibition of aggregation reading was recorded for the compound O=S(=O)(c1ccccc1)c1nc(-c2cccs2)oc1NCC1CCCO1 (configuration not stated) ? 11.4

Also need `O=S(=O)(c1ccc(Oc2ccc(-c3nnco3)cc2)nc1)N1CCC(Cc2ccccc2)CC1` , thanks. -26.7

Also need `Cn1c(SCc2c(F)cccc2Cl)nnc1-c1cccs1` , thanks. -11.9

Also need `O=C(Nn1cnnc1)c1cc2c(s1)CCCC2` , thanks. -5.7

Also need `c1ccc(CCn2nnnc2CN2CCN(C3CCCC3)CC2)cc1` , thanks. -9.3

Also need CCOc1ccc2nc(NC(=O)C3CCCN(S(=O)(=O)c4c(C)noc4C)C3)sc2c1 (configuration not stated) , thanks. -0.7

Also need `COc1ccc(C2(C(=O)N3CCCC3)CCOCC2)cc1OC` , thanks. -9.9

Also need `O=C(Nc1cnccn1)c1cccs1` , thanks. -13.1

Also need CCC(C)(C)n1nnnc1C(c1ccc(OC)c(OC)c1)N1CCN(c2ccc(F)cc2)CC1 (configuration not stated) , thanks. -1

Also need `CCOC(=O)c1ccc(NC(=O)c2ccc(NS(C)(=O)=O)cc2)cc1` , thanks. 8.8

Also need CCCC(NC(=O)c1ccccc1)c1nc2ccccc2n1Cc1ccc(C(=O)OC)o1 (configuration not stated) , thanks. 7.1

Also need `CC(=O)SCCC(=O)Nc1ccccc1` , thanks. -12.1

Also need `COc1ccc2nc(SCC(=O)NC(C)C)[nH]c2c1` , thanks. -0.8

Also need `O=C(CSc1nnc(CNC(=O)c2cccs2)o1)NC1CCCC1` , thanks. 10.3

Also need CCOc1cc(C2C(C#N)=C(N)Oc3n[nH]c(CC)c32)ccc1OCCN1CCOCC1 (configuration not stated) , thanks. 12.6

Also need `Cc1cc(C(=O)CN2C(=O)c3ccccc3C2=O)c(C)n1Cc1cccs1` , thanks. -1

Also need `COc1cc(C(=O)Nc2cccc(-c3nncn3C)c2)cc(OC)c1OC` , thanks. 22.2

Also need COc1cc(-n2nc(C)c3c2OC(N)=C(C#N)C3c2ccccc2)c(Cl)c(Br)c1O (configuration not stated) , thanks. 2.1

Also need Cc1cccc(NC(=O)C2CCCN2C(=O)OCC(C)C)c1C (configuration not stated) , thanks. -27.8

Also need `C=CCN1C(=O)CS/C1=N/c1nccs1` , thanks. 3.5

Also need O=C(O)C1CCCN1S(=O)(=O)c1ccc2ccccc2c1 (configuration not stated) , thanks. -2.3

Also need `CC1CCN(CCc2nc3cc(NS(=O)(=O)c4ccc(F)cc4)ccc3n2C)CC1` , thanks. 13.2

Also need `CN(C(=O)c1cc2sccc2n1C)C1CCCCC1` , thanks. 5.1

Also need CCCCNC(=O)C(C#N)c1nc2ccccc2nc1N1CCCC1 (configuration not stated) , thanks. 22.5

Also need CC(=O)C1=C(C)NC(SCSc2ccccc2)=C(C#N)C1c1cccnc1 (configuration not stated) , thanks. -6.8

Also need COc1ccccc1CNC(=O)C1CCC(CNc2c(N3CCOCC3)c(=O)c2=O)CC1 (configuration not stated) , thanks. 22.5

Also need CN1CCN(C(=O)NC2CCCN2S(=O)(=O)c2ccc(Cl)cc2)CC1 (configuration not stated) , thanks. 11.5

Also need `Cc1cc(C)nc(SC2=CS(=O)(=O)c3ccccc32)n1` , thanks. -0.8

Also need O=C(CCN1C(=O)C2C3C=CC(C3)C2C1=O)NCCc1ccccc1Cl (configuration not stated) , thanks. -1.6

Also need `CC(C)n1c(CN2CCN(C)CC2)nc2c1c(=O)n(C)c(=O)n2C` , thanks. 0.5

Also need `O=S(=O)(Nc1cccnc1)c1cc(Cl)ccc1Cl` , thanks. 6.1

Also need `CCc1nn2c(=O)cc(CSc3nc4sc5c(c4c(=O)n3C)CCCC5)nc2s1` , thanks. -13.9

Also need `COCCNC(=O)CN(C)S(=O)(=O)c1ccc(Br)cc1` , thanks. -10.4

Also need CCOC(=O)C(NC(=O)OC(C)C)(Nc1nccs1)C(F)(F)F (configuration not stated) , thanks. -13.3

Also need Cc1cc(C)nc(/N=C2\NC(=O)CC(C(=O)O)N2c2ccc(Cl)cc2)n1 (configuration not stated) , thanks. 0.5

Also need `CCOC(=O)N1CCC(NC(=O)c2cc3c(=O)n(C)c4ccccc4c3n2C)CC1` , thanks. 4.2

Also need `CCCN(CCC)C(=O)c1c(C)[nH]c(C(=O)OCC)c1C` , thanks. 2

Also need `CSc1ccc(S(=O)(=O)Nc2cccc(F)c2)cc1` , thanks. -4.6

Also need `COc1ccc2nc(NC(=O)c3ccoc3C)sc2c1` , thanks. -11.6

Also need `CCN(CC)Cc1c(C(=O)OC)nnn1-c1nonc1N` , thanks. 13.9

Also need `O=C(Nc1cccc(C(F)(F)F)c1)c1ccco1` , thanks. 4.3

Also need `Cc1ccc(NC(=O)c2cc(-c3ccc(C)o3)nc3ccccc23)nc1` , thanks. -7.9

Also need CCCCc1noc2c1/C(=N\O)CC(c1ccccc1)C2 (configuration not stated) , thanks. 11.5

Also need `CCOc1ccccc1NC(=O)CCN1CCN(S(=O)(=O)c2ccc(Br)cc2)CC1` , thanks. -10.2

Also need `Nn1c(SCc2csc(-c3ccccc3)n2)nnc1-c1cccs1` , thanks. -10.8

Also need `CCc1nnc(NC(=O)CN2CCN(c3ccccc3OC)CC2)s1` , thanks. -10

Also need `CC(=O)c1ccc(-c2nc3ccccc3n2C)o1` , thanks. -13.2

====

Please go through the items and note down their inhibition.
- ASSAY_EXPLANATION: blockers of RIG-like receptor reporter activation – cell-based, Sendai virus stimulus, luciferase, 10K MLSCN set, TLR/RLR signaling modifier project, primary screen (AID 602276);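 further: firefly luciferase from ISG56 promoter only with Renilla not read in this screen; 0% = Sendai virus plus DMSO and 100% = medium plus DMSO without virus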
- STUDY_CONDITIONS: HEK293 RL24 IRF3 luciferase reporter, at 10 µM, stronger effect = higher value
Report only the number, with the unit % understood.

Which inhibition reading was recorded for the compound `CCOC(=O)Cc1nnc(NC(=O)c2ncn[nH]2)s1` ? -0.284

Also need `CCOc1ccc(Oc2nc(Nc3ccc(C)cc3)nc(N(C)C)n2)nn1` , thanks. -17.8

Also need `O=C(Nc1ccc(Cc2ccc(NC(=O)N3CCOCC3)cc2)cc1)N1CCOCC1` , thanks. 0.542

Also need O=C(NCC1CCCO1)C1c2ccccc2C(=O)N1C1CCCCCC1 (stereo unspecified) , thanks. 11.3

Also need `Cc1ccc(Cn2nnc(C(=O)Nc3cccc(C)c3C)c2N)cc1` , thanks. 6.59

Also need `COCCOC(=O)/C=C1/NC(=O)CS1` , thanks. 15.1

====

- ASSAY_EXPLANATION: inhibitors of TNFa-induced NFkB p65 translocation, primary screen, imaging, HUVEC, MLSMR starter and 10KST1 sets (AID 438);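 further: compound added about 3h40 before a 20 min TNFalpha stimulation; signal is the nuclear over cytoplasmic p65 intensity ratio per well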
- STUDY_CONDITIONS: HUVEC TNFa-induced p65 nuclear translocation; at 2 µM, stronger effect = higher value, 0% TNFa-plus-vehicle, 100% no-TNFa wells
Please go through the items and note down their inhibition.
Report only the number, with the unit % understood.

Which inhibition reading was recorded for the compound `COCCCN(C)C1CCN(C(=O)Nc2ccc(F)cc2)CC1` ? -1.3

Also need `Cc1ccc(-c2cn3nc(C)c(C)nc3n2)cc1` , thanks. -23.3

Also need `CCn1c(Cc2ccccc2)nnc1SCC(=O)Nc1cc(C)on1` , thanks. -3.3

Also need Cc1ccc(-c2nnn(CC(=O)N(Cc3cccs3)C(C(=O)NC(C)(C)C)c3ccc(C)o3)n2)o1 (stereo unspecified) , thanks. -4

Also need `CN(C)CCNC(=O)c1ccc(COCC(F)(F)F)cc1` , thanks. -2.2

Also need `COC(=O)c1ccccc1NC(=O)C1CCN(S(=O)(=O)c2cc(C)ccc2OC)CC1` , thanks. 3.6

Also need `Clc1cccc(-c2nnc3sc(-c4ccccc4)nn23)c1` , thanks. -3

Also need Cc1c(C(=O)OC2CCC(C)CC2)[nH]c2c1C(=O)CCC2 (stereo unspecified) , thanks. -0.8

Also need `O=C(CSc1ncnc2nc[nH]c12)c1ccc(Cl)cc1` , thanks. -12.4

Also need CCN1C(=O)C(C(=O)Nc2ccc(OC)cc2)C2CC1(C)Oc1ccccc12 (stereo unspecified) , thanks. 4.3

Also need CC1C(=O)C(C)C(c2cccs2)NC1c1cccs1 (stereo unspecified) , thanks. -1.4

====

- ASSAY_EXPLANATION: endothelial E-selectin expression blockers – imaging, HUVEC, immunofluorescence, MLSMR starter and 10KST1 sets, primary screen (AID 487);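 further: 100% = median nuclei count of all wells on the same plate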
- STUDY_CONDITIONS: HUVEC TNFalpha-induced E-selectin immunofluorescence imaging, at 2 µM; measured here: cell number, toxicity
PARAMETER_MEASURED: nuclei count (%)
Report only the number, with the unit % understood.

Which nuclei count reading was recorded for the molecule CC(CC(=O)NC1CCSC1=O)c1ccccc1 (stereo unspecified) ? 124

Also need `COc1nc(C)ccc1-c1noc(-c2ccncc2)n1` , thanks. 130

Also need COc1cc2cc(C(c3nnnn3C3CCCC3)N(C)C3CCCCC3)c(=O)[nH]c2cc1OC (stereo unspecified) , thanks. 108

Also need `Cc1cc(Cl)ccc1OCC(=O)Nn1c(C)ccc1C` , thanks. 136

Also need `O=C(c1c(Cl)nc2sccn12)N(C(=O)c1c(Cl)nc2sccn12)c1ccc(Cl)cn1` , thanks. 126

Also need `COc1ccccc1OCCSc1nc2ccccc2c(=O)[nH]1` , thanks. 86.8

Also need `CCn1c(SCc2cccc(C(F)(F)F)c2)nnc1-c1ccco1` , thanks. 104

Also need `O=C(Nc1ccc2c(c1)OCO2)c1ccc(CN2CCOCC2)cc1` , thanks. 122

Also need `CCOC(=O)CC(=O)c1cc(OC)c(OC)c(OC)c1` , thanks. 106

Also need `CC(C)Cn1c(N)c(C(=O)COC(=O)c2cc(-c3ccco3)nc3ccccc23)c(=O)n(C)c1=O` , thanks. 110

Also need `CN=Cc1cc(-c2ccccc2)sc1O` , thanks. 114

Also need `Cc1ccc(-c2noc(CN3CCN(c4ccccc4F)CC3)n2)cc1` , thanks. 101

Also need `COCCn1c(C)cc(C(=O)CSc2nc3ccccc3c(=O)[nH]2)c1C` , thanks. 114

Also need `O=C(c1ccc(Cl)s1)N1CCN(c2nc3ccccc3s2)CC1` , thanks. 107

Also need `Cc1onc(-c2c(Cl)cccc2Cl)c1C(=O)N1CCc2ccccc21` , thanks. 92.5

Also need `CCn1c(SCC(=O)Nc2cc(NC(C)=O)ccc2OC)nnc1-c1ccccn1` , thanks. 92.7

Also need `O=C(Nc1ccc(-c2noc(-c3cccs3)n2)cc1)c1cccnc1` , thanks. 95.8

Also need `O=C(c1ccco1)N1CCN(S(=O)(=O)c2ccc(Oc3ccccc3)cc2)CC1` , thanks. 111

Also need `CC1(C)CC(=O)C(C=Nc2ccc3c(c2)OCO3)=C(O)C1` , thanks. 86.4

Also need `Cc1cc(C)n2nc[n+](C)c2n1` , thanks. 120

Also need `O=C(Oc1ccccc1)c1cccc(COC(=O)c2cnccn2)c1` , thanks. 105

Also need `FC(F)(F)c1cc(-c2ccco2)nc(N2CCOCC2)n1` , thanks. 118

Also need CC1CCCN(C(=O)c2cc3c(-c4ccc(Cl)cc4)nn(C)c3s2)C1 (stereo unspecified) , thanks. 111

Also need `CCOC(=O)c1cc2sccc2n1Cc1ccccc1` , thanks. 99.7

Also need `Cn1c(=O)n(CCN2CCOCC2)c(=O)c2c1nc1n2CCN1c1ccccc1` , thanks. 132

Also need `CCCCN(CC)CCCNC(=O)CS(=O)(=O)Cc1nc(-c2cccc(OC)c2)oc1C` , thanks. 99.7

Also need `C/C=C(\C)c1nnc(NC(=O)C(C)C)s1` , thanks. 95.4

Also need `CSc1c(C#N)c(N)c(C#N)c2c1COC(C)(C)C2` , thanks. 103

Also need `Cc1ccc(NC(=O)c2ccco2)cc1NC(=O)CSc1nnc(-c2cccs2)n1C` , thanks. 98.1

Also need `c1ccc2c(c1)nc(NCCN1CCOCC1)c1nncn12` , thanks. 99.2

Also need `CCOC(=O)C1CCN(S(=O)(=O)c2cccc(-c3csc(C)n3)c2)CC1` , thanks. 89

Also need `CC1=Nn2c(nnc2-c2ccc(F)cc2)SC1` , thanks. 95.6

Also need COc1cccc2cc(C(=O)C3=C(O)C(=O)N(CCCN4CCOCC4)C3c3ccncc3)oc12 (stereo unspecified) , thanks. 120

Also need `Nc1nnnn1/N=C/c1ccccc1OCc1ccccc1` , thanks. 138

Also need `O=C(NCCC1=CCCCC1)c1cc2c(s1)CS(=O)(=O)C2` , thanks. 94.9

Also need CCOC(=O)C(C#N)C(c1cccnc1)c1c(C)[nH][nH]c1=O (stereo unspecified) , thanks. 101

Also need `O=C(O)c1cc2nc(-c3ccc(F)cc3)cc(C(F)(F)F)n2n1` , thanks. 110

Also need `Oc1ccccc1-c1nnc(COc2ccc(Cl)cc2Cl)o1` , thanks. 113

Also need `CC(=O)c1cccc(NC(=O)N2CCCc3ccccc32)c1` , thanks. 120

Also need `CCOC(=O)Cn1c(=N)n(CCOc2cccc(C)c2)c2ccccc21` , thanks. 224

Also need C/C=C/COC(=O)c1[nH]c2c(c1C)C(=O)CC(c1ccc(N(C)C)cc1)C2 (stereo unspecified) , thanks. 115

Also need `CCOC(=O)c1sc2nc(NC(=O)C(C)(C)C)sc2c1C` , thanks. 104

Also need `Cc1nc2ccc(S(=O)(=O)NCC(=O)N(C)Cc3ccco3)cc2s1` , thanks. 101

Also need `Cc1cc(NS(=O)(=O)c2ccc(Nc3nc(-c4sc(N)nc4C)cs3)cc2)no1` , thanks. 103

Also need O=C(NCC1CCCO1)C1CCN(c2ccc(S(=O)(=O)N3CCCC3)cc2)CC1 (stereo unspecified) , thanks. 108

Also need `Cc1cc(=O)n2nc(N3CCC(C(=O)N4CCN(Cc5ccccc5)CC4)CC3)sc2n1` , thanks. 103

Reference source: PubChem BioAssay
